The reader will find reported IC50 values listed item by item below.
system: ZF4 (fibroblasts) cell line; experiment: CFDA endpoint of AB/CFDA/NR multiplex, membrane stability; format: cell-based, zebrafish (Danio rerio); settings: Danio rerio, Fibroblast; ZF4, 48 h exposure, nominal; read-out: IC50;nom CFDA
Please report the result as a number followed by the unit.

Completed entries (count: 2):
[
  {
    "molecule": "COC(=O)Nc1nc2ccc([S+]([O-])c3ccccc3)cc2[nH]1 (stereo not shown)",
    "IC50": "153 µM"
  },
  {
    "molecule": "CO[C@H]1C[C@H](O[C@H]2[C@H](C)O[C@@H](O[C@@H]3/C(C)=C/C[C@@H]4C[C@@H](C[C@]5(C=C[C@H](C)[C@@H](C6CCCCC6)O5)O4)OC(=O)[C@@H]4C=C(C)[C@@H](O)[C@H]5OC/C(=C\\C=C\\[C@@H]3C)[C@]54O)C[C@@H]2OC)O[C@@H](C)[C@@H]1O",
    "IC50": "16.8 µM"
  }
]

Prompt line: Please look at this molecule and report its IC50: COC(=O)Nc1nc2ccc(Sc3ccccc3)cc2[nH]1
Response line: 49.5 µM

Prompt line: Please look at this molecule and report its IC50: CC1(C)C(C=C(Cl)c2ccc(Cl)cc2)C1C(=O)OC(C#N)c1ccc(F)c(Oc2ccccc2)c1 (stereo not shown)
Response line: 170 µM

Prompt line: Please look at this molecule and report its IC50: CCCSc1ccc2nc(NC(=O)OC)[nH]c2c1
Response line: 75.4 µM

Prompt line: Please look at this molecule and report its IC50: CCC(C)C1OC2(CCC1C)CC1CC(CC=C(C)C(OC3CC(OC)C(OC4CC(OC)C(O)C(C)O4)C(C)O3)C(C)C=CC=C3COC4C(O)C(C)=CC(C(=O)O1)C34O)O2 (stereo not shown)
Response line: 18.2 µM

Prompt line: Please look at this molecule and report its IC50: Cc1cc(-n2c(=O)[nH]c(=O)n(C)c2=O)ccc1Oc1ccc(SC(F)(F)F)cc1
Response line: 104 µM

----------
system: ZFL (hepatocytes) cell line; experiment: cells; type: cell-based, zebrafish (Danio rerio); details: Danio rerio, Hepatocyte; CFDA - ZFL; read-out: IC50
property_name: pIC50
Schema: pIC50 number; meaning minus log10 of the concentration expressed in molar units.

Completed entries (count: 5):
[
  {
    "compound": "COC(=O)Nc1nc2ccc([S+]([O-])c3ccccc3)cc2[nH]1 (stereo not shown)",
    "measured_on": "ZFL (hepatocytes) cell line",
    "pIC50": 3.49
  },
  {
    "compound": "CC1(C)C(C=C(Cl)c2ccc(Cl)cc2)C1C(=O)OC(C#N)c1ccc(F)c(Oc2ccccc2)c1 (stereo not shown)",
    "measured_on": "ZFL (hepatocytes) cell line",
    "pIC50": 3.93
  },
  {
    "compound": "CO[C@H]1C[C@H](O[C@H]2[C@H](C)O[C@@H](O[C@@H]3/C(C)=C/C[C@@H]4C[C@@H](C[C@]5(C=C[C@H](C)[C@@H](C6CCCCC6)O5)O4)OC(=O)[C@@H]4C=C(C)[C@@H](O)[C@H]5OC/C(=C\\C=C\\[C@@H]3C)[C@]54O)C[C@@H]2OC)O[C@@H](C)[C@@H]1O",
    "measured_on": "ZFL (hepatocytes) cell line",
    "pIC50": 5.03
  },
  {
    "compound": "Cc1cc(-n2c(=O)[nH]c(=O)n(C)c2=O)ccc1Oc1ccc(SC(F)(F)F)cc1",
    "measured_on": "ZFL (hepatocytes) cell line",
    "pIC50": 3.91
  },
  {
    "compound": "CCC(C)C1OC2(CCC1C)CC1CC(CC=C(C)C(OC3CC(OC)C(OC4CC(OC)C(O)C(C)O4)C(C)O3)C(C)C=CC=C3COC4C(O)C(C)=CC(C(=O)O1)C34O)O2 (stereo not shown)",
    "measured_on": "ZFL (hepatocytes) cell line",
    "pIC50": 4.85
  }
]

Prompt line: Please look at this compound and report its pIC50: COC(=O)Nc1nc2ccc(Sc3ccccc3)cc2[nH]1
Response line: 4.67

Prompt line: Please look at this compound and report its pIC50: CCCSc1ccc2nc(NC(=O)OC)[nH]c2c1
Response line: 3.66

----------
test system: ZF4 and ZFL cell lines; assay: Cytotoxicity assays, all endpoints, both cell lines (mean/range); type: cell-based, zebrafish (Danio rerio); details: Danio rerio, 48 h, mean of all cytotoxicity endpoints (without LDH) in ZF4 and ZFL, log10, read-out: Mean log IC50nom (converted)
property_name: IC50
Please report the result as a number followed by the unit.

Completed entries (count: 3):
[
  {
    "compound": "CO[C@H]1C[C@H](O[C@H]2[C@H](C)O[C@@H](O[C@@H]3/C(C)=C/C[C@@H]4C[C@@H](C[C@]5(C=C[C@H](C)[C@@H](C6CCCCC6)O5)O4)OC(=O)[C@@H]4C=C(C)[C@@H](O)[C@H]5OC/C(=C\\C=C\\[C@@H]3C)[C@]54O)C[C@@H]2OC)O[C@@H](C)[C@@H]1O",
    "property_name": "IC50",
    "value": "9.12 µM"
  },
  {
    "compound": "Cc1cc(-n2c(=O)[nH]c(=O)n(C)c2=O)ccc1Oc1ccc(SC(F)(F)F)cc1",
    "property_name": "IC50",
    "value": "85.1 µM"
  },
  {
    "compound": "COC(=O)Nc1nc2ccc(Sc3ccccc3)cc2[nH]1",
    "property_name": "IC50",
    "value": "2.4 µM"
  }
]

Continue with the next compound.
Prompt line: Please look at this compound and report its IC50: COC(=O)Nc1nc2ccc([S+]([O-])c3ccccc3)cc2[nH]1 (stereo not shown)
Response line: 23.4 µM

----------
system: ZF4 (fibroblasts) cell line; test: ATP assay (ATP/LDH multiplex), ATP metabolism; assay type: cell-based, zebrafish (Danio rerio); details: Danio rerio, Fibroblast; ZF4, 48 h exposure, nominal; read-out: IC50;nom ATP
property_name: pIC50
Schema: pIC50 number; meaning minus log10 of the concentration expressed in molar units.

Completed entries (count: 5):
[
  {
    "molecule": "CCCSc1ccc2nc(NC(=O)OC)[nH]c2c1",
    "pIC50": 5.49
  },
  {
    "molecule": "CCC(C)C1OC2(CCC1C)CC1CC(CC=C(C)C(OC3CC(OC)C(OC4CC(OC)C(O)C(C)O4)C(C)O3)C(C)C=CC=C3COC4C(O)C(C)=CC(C(=O)O1)C34O)O2 (stereo not shown)",
    "pIC50": 4.81
  },
  {
    "molecule": "COC(=O)Nc1nc2ccc([S+]([O-])c3ccccc3)cc2[nH]1 (stereo not shown)",
    "pIC50": 3.84
  },
  {
    "molecule": "CO[C@H]1C[C@H](O[C@H]2[C@H](C)O[C@@H](O[C@@H]3/C(C)=C/C[C@@H]4C[C@@H](C[C@]5(C=C[C@H](C)[C@@H](C6CCCCC6)O5)O4)OC(=O)[C@@H]4C=C(C)[C@@H](O)[C@H]5OC/C(=C\\C=C\\[C@@H]3C)[C@]54O)C[C@@H]2OC)O[C@@H](C)[C@@H]1O",
    "pIC50": 5.36
  },
  {
    "molecule": "CC1(C)C(C=C(Cl)c2ccc(Cl)cc2)C1C(=O)OC(C#N)c1ccc(F)c(Oc2ccccc2)c1 (stereo not shown)",
    "pIC50": 3.50
  }
]

Prompt line: Please look at this molecule and report its pIC50: Cc1cc(-n2c(=O)[nH]c(=O)n(C)c2=O)ccc1Oc1ccc(SC(F)(F)F)cc1
Response line: 4.36

Prompt line: Please look at this molecule and report its pIC50: COC(=O)Nc1nc2ccc(Sc3ccccc3)cc2[nH]1
Response line: 5.13

----------
test system: ZFL (hepatocytes) cell line; experiment: cells; type: cell-based, zebrafish (Danio rerio); details: Danio rerio, Hepatocyte; NR-abs - ZFL; log10 of IC50; read-out: LogIC50 (converted)
The reader will find reported IC50 values listed item by item below.
Provide the reading as a plain figure in µM.

[
  {
    "compound": "Cc1cc(-n2c(=O)[nH]c(=O)n(C)c2=O)ccc1Oc1ccc(SC(F)(F)F)cc1 [Toltrazuril, toltrazuril]",
    "measured_on": "ZFL (hepatocytes) cell line",
    "IC50 [µM]": 84.7
  },
  {
    "compound": "CC1(C)C(C=C(Cl)c2ccc(Cl)cc2)C1C(=O)OC(C#N)c1ccc(F)c(Oc2ccccc2)c1 (stereo not shown) [Flumethrin, flumethrin]",
    "measured_on": "ZFL (hepatocytes) cell line",
    "IC50 [µM]": 160
  },
  {
    "compound": "CCC(C)C1OC2(CCC1C)CC1CC(CC=C(C)C(OC3CC(OC)C(OC4CC(OC)C(O)C(C)O4)C(C)O3)C(C)C=CC=C3COC4C(O)C(C)=CC(C(=O)O1)C34O)O2 (stereo not shown) [Ivermectin, ivermectin]",
    "measured_on": "ZFL (hepatocytes) cell line",
    "IC50 [µM]": 2.55
  },
  {
    "compound": "CO[C@H]1C[C@H](O[C@H]2[C@H](C)O[C@@H](O[C@@H]3/C(C)=C/C[C@@H]4C[C@@H](C[C@]5(C=C[C@H](C)[C@@H](C6CCCCC6)O5)O4)OC(=O)[C@@H]4C=C(C)[C@@H](O)[C@H]5OC/C(=C\\C=C\\[C@@H]3C)[C@]54O)C[C@@H]2OC)O[C@@H](C)[C@@H]1O [Doramectin, doramectin]",
    "measured_on": "ZFL (hepatocytes) cell line",
    "IC50 [µM]": 4.52
  },
  {
    "compound": "COC(=O)Nc1nc2ccc([S+]([O-])c3ccccc3)cc2[nH]1 (stereo not shown) [Oxfendazole, oxfendazole]",
    "measured_on": "ZFL (hepatocytes) cell line",
    "IC50 [µM]": 8.93
  },
  {
    "compound": "CCCSc1ccc2nc(NC(=O)OC)[nH]c2c1 [Albendazole, albendazole]",
    "measured_on": "ZFL (hepatocytes) cell line",
    "IC50 [µM]": 0.904
  }
]

Continue with the next compound.
Prompt line: Please look at this compound and report its IC50: COC(=O)Nc1nc2ccc(Sc3ccccc3)cc2[nH]1 [Fenbendazole, fenbendazole]
Response line: 0.532
